The measured values listed here are drawn from ChEMBL document CHEMBL1799968.

biological target: UniProt:P04150; assay: Transrepression activity of glucocorticoid receptor in human A549 cells assessed as inhibition of IL1beta-stimulated NFkappaB-dependent E-selectin transcription by luciferase reporter gene assay relative to Dexamethasone; type: cell-based
measure: Efficacy (%)

[a] CC(C)(C(=O)Nc1nccs1)[C@@H](c1ccccc1)c1ccc(O)c(C#N)c1
[b] CC(=O)c1cc([C@H](c2ccccc2)C(C)(C)C(=O)Nc2nccs2)ccc1O
// select label with min value of measured Efficacy from [ a , b ] Lab note: record the label of whichever item you select.
b

[1] CC(C)(C(=O)Nc1nccs1)[C@@H](c1ccccc1)c1ccc(O)c(F)c1
[2] CC(C)(C(=O)Nc1nccs1)[C@H](c1ccccc1)c1ccc(O)c(F)c1
// select label with min value of measured Efficacy from [ 1 , 2 ] Lab note: record the label of whichever item you select.
2

###

Target: Androgen receptor (Homo sapiens)
Sequence (P10275 whole entry): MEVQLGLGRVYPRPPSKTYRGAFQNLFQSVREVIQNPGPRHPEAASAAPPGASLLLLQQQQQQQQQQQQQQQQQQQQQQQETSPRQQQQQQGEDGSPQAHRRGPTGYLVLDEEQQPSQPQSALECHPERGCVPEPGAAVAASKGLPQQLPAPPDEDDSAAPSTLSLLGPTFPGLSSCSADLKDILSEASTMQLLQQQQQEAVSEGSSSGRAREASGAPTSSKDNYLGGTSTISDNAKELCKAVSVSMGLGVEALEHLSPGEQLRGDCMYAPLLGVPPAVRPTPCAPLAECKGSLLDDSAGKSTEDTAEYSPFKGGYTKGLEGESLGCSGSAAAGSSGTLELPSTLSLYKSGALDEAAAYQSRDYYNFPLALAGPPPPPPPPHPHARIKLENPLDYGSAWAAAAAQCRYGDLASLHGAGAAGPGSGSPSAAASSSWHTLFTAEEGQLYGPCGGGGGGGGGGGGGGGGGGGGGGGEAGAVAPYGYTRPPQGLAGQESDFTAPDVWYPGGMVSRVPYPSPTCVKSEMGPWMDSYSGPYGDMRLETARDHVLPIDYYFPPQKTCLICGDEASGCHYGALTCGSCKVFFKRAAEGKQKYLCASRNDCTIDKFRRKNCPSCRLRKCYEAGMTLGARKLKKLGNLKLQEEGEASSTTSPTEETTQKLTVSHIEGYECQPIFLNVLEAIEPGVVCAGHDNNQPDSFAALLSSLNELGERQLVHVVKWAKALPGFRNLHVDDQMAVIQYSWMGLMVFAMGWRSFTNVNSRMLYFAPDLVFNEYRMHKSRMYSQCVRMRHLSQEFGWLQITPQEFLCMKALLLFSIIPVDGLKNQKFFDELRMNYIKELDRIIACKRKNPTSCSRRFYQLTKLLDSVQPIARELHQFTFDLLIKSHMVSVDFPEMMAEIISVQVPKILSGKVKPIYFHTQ
pKi: −log10 of the molar value.
measure: pKi

CC(C)(C(=O)Nc1nccs1)[C@@H](c1ccccc1)c1ccc(O)cc1
5.98

[I] CC(C)(C(=O)Nc1nncs1)[C@@H](c1ccccc1)c1ccc(O)c(F)c1
[II] CC(C)(C(=O)Nc1nccs1)[C@H]1c2ccccc2Oc2cc(O)ccc21
Select one: I or II . Criterion: greater recorded pKi. Lab note: record the label of whichever item you select.
I
(I: 6.00, II: 5.63)

###

experiment: Selectivity ratio of Ki of GRapha to Ki of progesterone receptor
measure: Ratio Ki

[I] CC(C)(C(=O)Nc1nccs1)[C@H]1c2ccccc2Oc2cc(O)ccc21
[II] CC(C)(C(=O)Nc1nccs1)[C@@H](c1ccccc1)c1ccc(O)cc1
// select label with min value of measured Ratio Ki from [ I , II ] Lab note: record the label of whichever item you select.
I

###

target: Glucocorticoid receptor (Homo sapiens); assay: Transrepression activity of glucocorticoid receptor in human A549 cells expressing AP-1 assessed as inhibition of PMA-induced AP-1 activity by luciferase reporter gene assay relative to Dexamethasone; type: cell-based
measure: Efficacy (%)

CC(C)(C(=O)Nc1nccs1)[C@H]1c2ccccc2Oc2cc(O)ccc21
81
CC(C)(C(=O)Nc1nccs1)[C@@H](c1ccccc1)c1ccc(O)cc1
63
CC(C)(C(=O)Nc1nccs1)[C@@H](c1ccccc1)c1ccc(O)c(C#N)c1
74
CC(C)(C(=O)Nc1nccs1)C(c1ccccc1)c1ccc(O)cc1 (racemic)
63
CC(C)(C(=O)Nc1nncs1)[C@@H](c1ccccc1)c1ccc(O)c(Br)c1
87
CC(C)(C(=O)Nc1nccs1)[C@@H](c1ccccc1)c1ccc(O)c(F)c1
79
CC(C)(C(=O)Nc1nccs1)[C@@H](c1ccccc1)c1ccc(O)c(Br)c1
83
CC(C)(C(=O)Nc1nncs1)[C@H]1c2ccccc2Oc2cc(O)ccc21
82

[1] CC(C)(C(=O)Nc1nccs1)C(c1ccccc1)c1ccc(O)c(F)c1 (racemic)
[2] CC(C)(C(=O)Nc1nccs1)[C@H](c1ccccc1)c1ccc(O)c(F)c1
Select one: 1 or 2 . Criterion: greater recorded Efficacy. Lab note: record the label of whichever item you select.
1

###

biological target: Glucocorticoid receptor (Homo sapiens); test: Transrepression activity of glucocorticoid receptor in human A549 cells assessed as inhibition of IL1beta-stimulated NFkappaB-dependent E-selectin transcription by luciferase reporter gene assay; type: cell-based
pEC50: −log10 of the molar value.
measure: pEC50

// solved cases for pEC50 follow
CC(C)(C(=O)Nc1nncs1)[C@@H](c1ccccc1)c1ccc(O)c(Br)c1
8.21
CC(C)(C(=O)Nc1nccs1)[C@@H](c1ccccc1)c1ccc(O)c(C#N)c1
6.69
CC(C)(C(=O)Nc1nccs1)[C@@H](c1ccccc1)c1ccc(O)cc1
7.53
CC(C)(C(=O)Nc1nccs1)C(c1ccccc1)c1ccc(O)cc1 (racemic)
6.90
CC(C)(C(=O)Nc1nncs1)[C@H]1c2ccccc2Oc2cc(O)ccc21
8.46

[P] CC(C)(C(=O)Nc1nccs1)C(c1ccccc1)c1ccc(O)c(F)c1 (racemic)
[Q] CC(C)(C(=O)Nc1nccs1)[C@@H](c1ccccc1)c1ccc(O)c(F)c1
Select one: P or Q . Criterion: greater recorded pEC50. Lab note: record the label of whichever item you select.
Q

###

Target: Estrogen receptor (Homo sapiens)
Sequence (P03372 whole entry): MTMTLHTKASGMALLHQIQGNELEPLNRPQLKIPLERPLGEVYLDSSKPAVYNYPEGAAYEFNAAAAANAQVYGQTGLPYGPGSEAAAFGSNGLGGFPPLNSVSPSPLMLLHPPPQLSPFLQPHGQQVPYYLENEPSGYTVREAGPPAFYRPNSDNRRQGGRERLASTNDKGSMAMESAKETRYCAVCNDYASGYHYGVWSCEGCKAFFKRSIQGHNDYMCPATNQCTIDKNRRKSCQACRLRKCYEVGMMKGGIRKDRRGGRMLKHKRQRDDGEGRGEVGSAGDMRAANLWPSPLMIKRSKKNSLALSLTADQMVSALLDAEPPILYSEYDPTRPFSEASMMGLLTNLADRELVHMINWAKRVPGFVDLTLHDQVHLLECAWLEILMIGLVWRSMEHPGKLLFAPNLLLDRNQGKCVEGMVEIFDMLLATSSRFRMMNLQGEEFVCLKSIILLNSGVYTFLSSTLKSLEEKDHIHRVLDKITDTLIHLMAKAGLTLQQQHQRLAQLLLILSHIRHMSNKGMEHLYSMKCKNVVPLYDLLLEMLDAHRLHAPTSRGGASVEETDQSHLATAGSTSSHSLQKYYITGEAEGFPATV
As shown below, each of these compounds has a reported Ki value.

// solved cases for Ki follow
C[C@]12C=CC(=O)C=C1CC[C@@H]1[C@@H]2[C@@H](O)C[C@@]2(C)[C@H]1CC[C@]2(O)C(=O)CO [PREDNISOLONE]
> 5 µM
CC(C)(C(=O)Nc1nccs1)[C@@H](c1ccccc1)c1ccc(O)c(Br)c1
> 50 µM
CC(C)(C(=O)Nc1nncs1)[C@H]1c2ccccc2Oc2cc(O)ccc21
5.5 µM
CC(C)(C(=O)Nc1nncs1)[C@@H](c1ccccc1)c1ccc(O)c(F)c1
> 50 µM
CC(C)(C(=O)Nc1nccs1)[C@@H](c1ccccc1)c1ccc(O)cc1
> 100 µM
CC(C)(C(=O)Nc1nccs1)[C@H]1c2ccccc2Oc2cc(O)ccc21
2.3 µM

Now for the compound whose Ki we want.
For the compound shown here, "CC(C)(C(=O)Nc1nccs1)[C@@H](c1ccccc1)c1ccc(O)c(F)c1" , give the reported Ki.
> 50 µM

###

Target: UniProt P04150
Sequence (P04150 whole entry): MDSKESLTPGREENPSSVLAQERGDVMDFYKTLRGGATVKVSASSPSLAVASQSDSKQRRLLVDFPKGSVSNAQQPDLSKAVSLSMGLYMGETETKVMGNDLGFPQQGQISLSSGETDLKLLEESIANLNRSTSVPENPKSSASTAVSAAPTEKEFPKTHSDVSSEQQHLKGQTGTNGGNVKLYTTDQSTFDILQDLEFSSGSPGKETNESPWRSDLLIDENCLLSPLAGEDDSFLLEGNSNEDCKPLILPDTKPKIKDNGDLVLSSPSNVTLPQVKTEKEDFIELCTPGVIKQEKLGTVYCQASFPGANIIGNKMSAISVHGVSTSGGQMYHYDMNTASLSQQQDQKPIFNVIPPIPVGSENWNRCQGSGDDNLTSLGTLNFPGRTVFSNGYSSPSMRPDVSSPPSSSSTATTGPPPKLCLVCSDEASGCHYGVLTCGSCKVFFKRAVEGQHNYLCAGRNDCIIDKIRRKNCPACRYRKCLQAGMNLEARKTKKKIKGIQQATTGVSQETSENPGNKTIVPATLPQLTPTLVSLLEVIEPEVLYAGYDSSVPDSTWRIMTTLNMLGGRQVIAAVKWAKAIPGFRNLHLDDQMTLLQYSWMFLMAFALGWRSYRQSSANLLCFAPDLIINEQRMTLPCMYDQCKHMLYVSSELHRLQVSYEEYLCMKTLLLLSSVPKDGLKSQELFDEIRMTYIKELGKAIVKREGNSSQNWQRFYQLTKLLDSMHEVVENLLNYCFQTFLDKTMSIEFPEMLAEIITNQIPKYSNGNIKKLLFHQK
Assay: Transactivation activity of glucocorticoid receptor ligand binding domain expressed in human NP-1 Hela cells co-expressing GAL4 DNA binding domain by luciferase reporter gene assay
Format: cell-based
measure: EC50 (nM)

CC(C)(C(=O)Nc1nccs1)[C@@H](c1ccccc1)c1ccc(O)cc1
372

[A] CC(C)(C(=O)Nc1nccs1)[C@@H](c1ccccc1)c1ccc(O)c(F)c1
[B] CC(C)(C(=O)Nc1nccs1)C(c1ccccc1)c1ccc(O)cc1 (racemic)
Select one: A or B . Criterion: greater recorded EC50. Lab note: record the label of whichever item you select.
B
(B: 863 nM, A: 119 nM)
